# system: Muscarinic acetylcholine receptor M5 (Homo sapiens, UniProt P08912)
# Sequence (P08912 whole entry): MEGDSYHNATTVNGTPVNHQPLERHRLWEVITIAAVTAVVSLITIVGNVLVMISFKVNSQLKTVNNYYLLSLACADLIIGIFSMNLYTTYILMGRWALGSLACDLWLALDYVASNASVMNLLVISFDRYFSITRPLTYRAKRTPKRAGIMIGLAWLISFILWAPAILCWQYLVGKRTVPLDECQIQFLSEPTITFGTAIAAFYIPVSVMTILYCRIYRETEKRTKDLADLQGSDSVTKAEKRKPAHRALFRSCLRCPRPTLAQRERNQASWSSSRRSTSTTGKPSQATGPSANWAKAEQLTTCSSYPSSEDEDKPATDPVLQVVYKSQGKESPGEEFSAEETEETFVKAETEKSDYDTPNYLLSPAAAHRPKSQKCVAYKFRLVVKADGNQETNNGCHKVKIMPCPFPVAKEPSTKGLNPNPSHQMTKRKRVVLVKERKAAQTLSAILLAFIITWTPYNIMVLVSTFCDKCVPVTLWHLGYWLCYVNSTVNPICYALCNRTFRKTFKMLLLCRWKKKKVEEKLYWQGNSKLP
# runDescription: Antagonist activity at human muscarinic M5 receptor by calcium mobilization assay
# Format: functional
# particulars: read-out: IC50
pIC50: −log10 of the molar value.
observedProperty: pIC50

1. CCOC(=O)N1[C@@H]2CC[C@H]1C[C@@H](NCCNC(=O)c1ccccc1)C2 = 5.31

###

# runDescription: Volume of distribution at steady state in rat at 1 mg/kg, iv and 10 mg/kg, po
# Type: ADME, organism-based
# particulars: in vivo, read-out: Vdss
observedProperty: Vd (L/kg)

1) CCOC(=O)N1C2CCC1CC(N1CCC[C@@H](NC(=O)c3ccccc3C)C1)C2 (mixture of isomers) = 11.8

###

# runDescription: AUC in rat at 1 mg/kg, iv
# Assay type: ADME, organism-based
# Parameters: dose 1 mg/kg, route intravenous
# particulars: plasma
observedProperty: AUC (ng·h/mL)

1. CCOC(=O)N1C2CCC1CC(N1CCC[C@@H](NC(=O)c3ccccc3C)C1)C2 (mixture of isomers) = 92.2

###

This listing pairs molecules with measured IC50.
# system: UniProt:P08173
# runDescription: Antagonist activity at human muscarinic M4 receptor by calcium mobilization assay
# Format: functional
# particulars: read-out: IC50
observedProperty: IC50

1. CCOC(=O)N1[C@@H]2CC[C@H]1C[C@@H](NCCNC(=O)c1ccccc1)C2 = 3.1 µM
2. CCCCC1CCN(CCCN2C(=O)COc3cc(F)ccc32)CC1 = > 10 µM
3. CCOC(=O)N1C[C@H]2CC[C@@H](C1)[C@H]2NCCNC(=O)c1ccccc1 = > 10 µM
4. CCOC(=O)N1C[C@H]2CC[C@@H](C1)[C@H]2NCCNC(=O)c1cccc(Cl)c1 = > 10 µM

###

# system: Muscarinic acetylcholine receptor M1 (Homo sapiens)
# runDescription: Agonist activity at human muscarinic M1 receptor at 30 uM by calcium mobilization assay relative to acetylcholine
# Type: functional
observedProperty: Activity (%)

1. CCOC(=O)N1C[C@H]2CC[C@@H](C1)[C@H]2NCCNC(=O)c1cccc(Cl)c1 = 58
2. CCOC(=O)N1C[C@H]2CC[C@@H](C1)[C@H]2NCCNC(=O)c1ccccc1 = 46
3. CCOC(=O)N1[C@@H]2CC[C@H]1C[C@H](NCCNC(=O)c1ccccc1)C2 = 57
4. CCOC(=O)N1C2CCC1CC(N1CCC[C@@H](NC(=O)c3ccccc3)C1)C2 (mixture of isomers) = 65
5. CCOC(=O)N1[C@@H]2CC[C@H]1C[C@@H](NCCNC(=O)c1ccccc1)C2 = 37
6. CCOC(=O)N1CCC(NCCNC(=O)c2ccccc2C)CC1 = 34
7. CCCCC1CCN(CCCN2C(=O)COc3cc(F)ccc32)CC1 = 81
8. CCOC(=O)N1C2CCC1CC(N1CCC[C@@H](NC(=O)c3ccccc3C)C1)C2 (mixture of isomers) = 59

###

# system: Muscarinic acetylcholine receptor M4 (Homo sapiens)
# Sequence (P08173 whole entry): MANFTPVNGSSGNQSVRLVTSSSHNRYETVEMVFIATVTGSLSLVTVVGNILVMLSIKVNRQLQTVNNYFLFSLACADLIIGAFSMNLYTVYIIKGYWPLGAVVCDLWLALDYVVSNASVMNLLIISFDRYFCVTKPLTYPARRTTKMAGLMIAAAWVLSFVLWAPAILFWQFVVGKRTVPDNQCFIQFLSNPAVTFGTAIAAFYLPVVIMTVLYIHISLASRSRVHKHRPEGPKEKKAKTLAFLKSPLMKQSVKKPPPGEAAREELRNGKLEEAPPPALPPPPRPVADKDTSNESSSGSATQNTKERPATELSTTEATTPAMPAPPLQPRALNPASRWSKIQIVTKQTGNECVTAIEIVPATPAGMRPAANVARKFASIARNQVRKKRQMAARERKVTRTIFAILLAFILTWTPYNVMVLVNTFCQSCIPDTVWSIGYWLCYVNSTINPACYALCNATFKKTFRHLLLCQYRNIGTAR
# runDescription: Agonist activity at human muscarinic M4 receptor by calcium mobilization assay
# Format: functional
# particulars: read-out: EC50
pEC50: −log10 of the molar value.
observedProperty: pEC50

1) CCOC(=O)N1C2CCC1CC(N1CCC[C@@H](NC(=O)c3ccccc3C)C1)C2 (mixture of isomers) = < 5.00
